The measured values listed here are drawn from the NIST ThermoML archive (doi:10.1016/j.fluid.2006.03.018).

Settings: 298.15 K; 101.33 kPa; Liquid
experimentalEndpoint: mass density (kg/m3)
Write the number in kg/m3 without appending the unit.

Some entries whose results are on file:
compound	unitAbbrev	mass density
CCC(C)O (centres undefined)	kg/m3	802.4
CCO	kg/m3	784.9
CC(C)CO	kg/m3	797.8
CC(C)O	kg/m3	781.3

Proceeding to the next compound to report its mass density.
Q) For the compound Cc1ccccc1O , what mass density is on record?
A) 1046

###

Conditions: 298.15 K; 101.33 kPa; Liquid
experimentalEndpoint: mass density (kg/m3)
Write it as a number; the unit kg/m3 goes unstated.

Example molecules with recorded mass density:
molecule	unitAbbrev	mass density
CCCCO [butan-1-ol]	kg/m3	805.8
CC(C)(C)O [2-methylpropan-2-ol]	kg/m3	781.2
CO [methanol]	kg/m3	786.4

Q) Which mass density is reported for this molecule? CCCO [propan-1-ol]
A) 799.6
